B1: Calcium-binding protein 2, residues 155 to 219; numbered along this chain, Q9NPB3 (parent)
chain: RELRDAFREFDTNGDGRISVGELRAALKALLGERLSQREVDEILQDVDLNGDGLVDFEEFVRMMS

# Variants of: B1
# test: abundance fitness (aPCA) (normalised: wild type 0, dead -1); higher = more abundant; growth selection in yeast, the domain comes from the species named
# protocol conditions: Homo sapiens
quantity name: abundance fitness
Answers are plain numbers.

For each of the variants below, state abundance fitness.
1. A25P
2. D56G
3. D46V
4. F10D
5. F60P

Ans:
[-0.022, -0.031, -0.343, -1.13, -0.896]

Please look at the items below and tell me abundance fitness for each one, in order.
1. M63A
2. E58P
3. L35Y
4. E58D
5. A29M
6. R34M

Ans:
[-0.048, -0.025, 0.015, -0.061, -0.049, -0.207]

Each variant below has a recorded value; state its abundance fitness.
1. M63Y
2. R17T
3. I43G
4. D11M

Ans:
[-0.108, -0.217, 0.123, -1.17]
